Data export: Ki values recorded with ORL-1 receptor (Homo sapiens, UniProt P41146).
Sequence (P41146 whole entry): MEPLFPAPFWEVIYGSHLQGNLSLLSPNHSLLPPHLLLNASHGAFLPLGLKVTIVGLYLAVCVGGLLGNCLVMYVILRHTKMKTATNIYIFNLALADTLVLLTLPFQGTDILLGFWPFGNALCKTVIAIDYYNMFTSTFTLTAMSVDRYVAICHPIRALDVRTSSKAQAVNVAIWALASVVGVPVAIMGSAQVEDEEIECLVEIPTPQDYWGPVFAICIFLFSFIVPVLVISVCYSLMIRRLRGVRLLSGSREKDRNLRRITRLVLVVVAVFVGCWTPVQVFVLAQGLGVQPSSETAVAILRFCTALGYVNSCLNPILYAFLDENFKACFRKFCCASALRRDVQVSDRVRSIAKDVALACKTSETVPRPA
measurement.name: Ki (nM)

Worked examples follow.
{"compound": "Cc1cc(N)c2cc(NC(=O)c3ccccc3COc3ccc(Cl)cc3Cl)ccc2n1.Cl [Example 2, hydrochloride]", "test.value": 4}
{"compound": "Cc1cc(N)c2cc(NC(=O)c3ccccc3COc3ccc(Br)cc3)ccc2n1.Cl [Example 33, hydrochloride]", "test.value": 5}
{"compound": "Cc1cc(N)c2cc(NC(=O)c3ccccc3COc3ccc(F)cc3)ccc2n1.Cl [Example 25, hydrochloride]", "test.value": 8}
{"compound": "Cc1cc(C)cc(OCc2ccccc2C(=O)Nc2ccc3nc(C)cc(N)c3c2)c1.Cl [Example 5, hydrochloride]", "test.value": 28}
{"compound": "CCCc1ccc(OCc2ccccc2C(=O)Nc2ccc3nc(C)cc(N)c3c2)cc1.Cl [Example 34, hydrochloride]", "test.value": 8}
{"compound": "Cc1cc(N)c2cc(NC(=O)c3ccccc3COc3ccc(C#N)cc3)ccc2n1.Cl [Example 16, hydrochloride]", "test.value": 6}
{"compound": "Cc1cc(N)c2cc(NC(=O)c3ccccc3COc3cccc([N+](=O)[O-])c3)ccc2n1.Cl [Example 19, hydrochloride]", "test.value": 9}

P = CC(=O)c1ccc(OCc2ccccc2C(=O)Nc2ccc3nc(C)cc(N)c3c2)cc1.Cl [Example 12, hydrochloride]
Q = Cc1cc(N)c2cc(NC(=O)c3ccccc3COc3ccccc3)ccc2n1.Cl [Example 3, hydrochloride]
R = Cc1cc(N)c2cc(NC(=O)c3ccccc3COc3ccc(Cl)cc3)ccc2n1.Cl [Example 11, hydrochloride]
S = Cc1cc(N)c2cc(NC(=O)c3ccccc3COc3ccc(I)cc3)ccc2n1
T = COc1cccc(OCc2ccccc2C(=O)Nc2ccc3nc(C)cc(N)c3c2)c1OC.Cl [Example 8, hydrochloride]
## Input Your job: order these 5 records by Ki, ascending. Response field: labels, in requested order.
## Output R, S, P, T, Q
